experimental.system: cAMP-dependent protein kinase catalytic subunit PRKX (Homo sapiens)
assay.context: at 0.1 µM
inhibition for assorted compounds

>  <smiles.repr>
N#Cc1ccc(Oc2nccc(-c3c(-c4ccc(F)cc4)ncn3C3CCNCC3)n2)cc1

>  <experimental.system>
cAMP-dependent protein kinase catalytic subunit PRKX (Homo sapiens)

>  <inhibition (%)>
1.03

$$$$
>  <smiles.repr>
CCN(CC)Cc1ccc(Nc2nccc(-c3cnn4ncccc34)n2)cc1

>  <experimental.system>
cAMP-dependent protein kinase catalytic subunit PRKX (Homo sapiens)

>  <inhibition (%)>
2.55

$$$$
>  <smiles.repr>
Cc1ccc(C(=O)NC2CCC2)cc1-c1ccc(C(=O)NCC2CC2)cc1

>  <experimental.system>
cAMP-dependent protein kinase catalytic subunit PRKX (Homo sapiens)

>  <inhibition (%)>
1.55

$$$$
>  <smiles.repr>
O=C(Nc1ccc(Oc2ccc3[nH]c(NC(=O)c4ccccc4)nc3c2)cc1)Nc1cc(C(F)(F)F)ccc1F

>  <experimental.system>
cAMP-dependent protein kinase catalytic subunit PRKX (Homo sapiens)

>  <inhibition (%)>
1.55

$$$$
>  <smiles.repr>
COc1ccc2ncn(-c3cc(O[C@H](C)c4ccccc4Cl)c(C(N)=O)s3)c2c1

>  <experimental.system>
cAMP-dependent protein kinase catalytic subunit PRKX (Homo sapiens)

>  <inhibition (%)>
4.11

$$$$
>  <smiles.repr>
CN(C)c1ccc2c(c1)/C(=C/Nc1ccc(S(N)(=O)=O)cc1)C(=O)N2

>  <experimental.system>
cAMP-dependent protein kinase catalytic subunit PRKX (Homo sapiens)

>  <inhibition (%)>
0.94

$$$$
>  <smiles.repr>
NC(=O)c1cc(-c2ccc(F)cc2)cc(-c2ccncc2)c1N

>  <experimental.system>
cAMP-dependent protein kinase catalytic subunit PRKX (Homo sapiens)

>  <inhibition (%)>
1.1

$$$$
>  <smiles.repr>
O=C1Nc2ccc(I)cc2C1=Cc1cc(Br)c(O)c(Br)c1

>  <experimental.system>
cAMP-dependent protein kinase catalytic subunit PRKX (Homo sapiens)

>  <inhibition (%)>
0.49

$$$$
>  <smiles.repr>
O=C(Nc1n[nH]c2cc(-c3cc(F)ccc3F)ccc12)C1CC1

>  <experimental.system>
cAMP-dependent protein kinase catalytic subunit PRKX (Homo sapiens)

>  <inhibition (%)>
1.14

$$$$
>  <smiles.repr>
O=C(Nc1n[nH]c2cc(-c3ccccc3)ccc12)C1CC1

>  <experimental.system>
cAMP-dependent protein kinase catalytic subunit PRKX (Homo sapiens)

>  <inhibition (%)>
1.37

$$$$
>  <smiles.repr>
Fc1ccc(-c2ncn(C3CCNCC3)c2-c2ccnc(Oc3ccc4c(c3)OCO4)n2)cc1

>  <experimental.system>
cAMP-dependent protein kinase catalytic subunit PRKX (Homo sapiens)

>  <inhibition (%)>
1.9

$$$$
>  <smiles.repr>
COc1cc(Nc2ncc3c(C)nc(-c4cccc(C(F)(F)F)c4)n3n2)cc(OC)c1OC

>  <experimental.system>
cAMP-dependent protein kinase catalytic subunit PRKX (Homo sapiens)

>  <inhibition (%)>
3

$$$$
>  <smiles.repr>
CN(c1ccc(NC(=O)Nc2c(Cl)cccc2Cl)cc1)c1ccnc(Nc2cccc(CS(C)(=O)=O)c2)n1

>  <experimental.system>
cAMP-dependent protein kinase catalytic subunit PRKX (Homo sapiens)

>  <inhibition (%)>
1.96

$$$$
>  <smiles.repr>
C[C@@H](Oc1cc(-n2cnc3ccc(OCC4CCN(C)CC4)cc32)sc1C(N)=O)c1ccccc1Cl

>  <experimental.system>
cAMP-dependent protein kinase catalytic subunit PRKX (Homo sapiens)

>  <inhibition (%)>
1.81

$$$$
>  <smiles.repr>
NC(=O)c1ccc(Oc2nccc(-c3c(-c4ccc(F)cc4)ncn3C3CCNCC3)n2)cc1

>  <experimental.system>
cAMP-dependent protein kinase catalytic subunit PRKX (Homo sapiens)

>  <inhibition (%)>
3.5

$$$$
>  <smiles.repr>
COc1ccc(C2=C(N3CCc4ccccc43)C(=O)NC2=O)cc1

>  <experimental.system>
cAMP-dependent protein kinase catalytic subunit PRKX (Homo sapiens)

>  <inhibition (%)>
2.47

$$$$
>  <smiles.repr>
Cc1ccc(NC(=O)c2ccoc2)cc1-c1ccc(C(=O)NCC2CC2)cc1

>  <experimental.system>
cAMP-dependent protein kinase catalytic subunit PRKX (Homo sapiens)

>  <inhibition (%)>
1.5

$$$$
>  <smiles.repr>
c1ccc(-c2n[nH]cc2-c2ccnc(-c3ccc(OCCN4CCOCC4)cc3)c2)nc1

>  <experimental.system>
cAMP-dependent protein kinase catalytic subunit PRKX (Homo sapiens)

>  <inhibition (%)>
4.09

$$$$
>  <smiles.repr>
FC(F)(F)c1cccc(Nc2nccc(-c3cnn4nc(-c5ccccc5)ccc34)n2)c1

>  <experimental.system>
cAMP-dependent protein kinase catalytic subunit PRKX (Homo sapiens)

>  <inhibition (%)>
1.18

$$$$
>  <smiles.repr>
Fc1ccc(-c2c(-c3ccncc3)nc3n2CCS3)cc1

>  <experimental.system>
cAMP-dependent protein kinase catalytic subunit PRKX (Homo sapiens);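 note: values are mean percent inhibition of PRKX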

>  <inhibition (%)>
6.08

$$$$
